- System: Candida albicans
- Method notes: Antimicrobial activity against Candida albicans ATCC 10231
- Type: functional
For each of the molecules below, state its MIC.

Exercise: Determine its reported MIC: CC(=O)O[C@@H]1c2c(C)coc2C(=O)C2=CCC[C@H](C)[C@]21C
Solution: > 400 µg/mL

Exercise: Determine its reported MIC: COc1c2c(c(C)c3c1OC(=O)[C@@]3(C)O)[C@@H](C)CCC2
Solution: > 400 µg/mL

Exercise: Determine its reported MIC: C[C@H]1CCCc2c(O)c(O)c3c(c21)COC(=O)C3(C)O (mixture of isomers)
Solution: > 400 µg/mL

Exercise: Determine its reported MIC: Cc1coc2c1C(C)(O)C1=C(CCC[C@@H]1C)C2=O (mixture of isomers) [cacalone/epi-cacalone]
Solution: > 1000 µg/mL

Exercise: Determine its reported MIC: C/C=C\C(=O)O[C@@H]1c2c(C)coc2C(=O)C2=CCC[C@H](C)[C@]21C
Solution: > 400 µg/mL

Exercise: Determine its reported MIC: COc1c2c(c(C)c3c(C)coc13)[C@@H](C)CC=C2
Solution: > 400 µg/mL

Exercise: Determine its reported MIC: Cc1coc2c(O)c3c(c(Cc4oc5c(O)c6c(c(C)c5c4C)[C@@H](C)CCC6)c12)[C@@H](C)CCC3
Solution: > 400 µg/mL

Exercise: Determine its reported MIC: Cc1coc2c(O)c3c(c(C)c12)[C@@H](C)CCC3
Solution: 12 µg/mL

The reported measurements were obtained from ChEMBL document CHEMBL1150811.
